B1: RPS21 (parent)
chain: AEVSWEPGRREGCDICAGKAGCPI

# Variants of: B1
# test protocol: protein stability index of a GFP-peptide fusion (GPS, HEK-293T) (PSI 1-6); higher = more stable;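 note: lentivirally expressed fusions sorted by FACS into six bins by GFP to DsRed ratio, PSI derived from sequencing read proportions per bin multiplied by bin number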
# measurement conditions: c terminus: a fixed tail appended
Assign rule met whenever protein stability index does not fall below 3; assign rule not met whenever it does.

mutation notation: G18K
label class: rule not met
//
mutation notation: I24V
label class: rule met
//
mutation notation: C16V
label class: rule met
//
mutation notation: G8F
label class: rule not met
//
mutation notation: K19T
label class: rule not met
//
mutation notation: E6T
label class: rule not met
//
mutation notation: I24C
label class: rule met
//
mutation notation: R9A
label class: rule met
//
mutation notation: G18F
label class: rule not met
//
mutation notation: A1H
label class: rule not met
//
mutation notation: C13A
label class: rule not met
//
mutation notation: R9D
label class: rule met
//
mutation notation: C13E
label class: rule met
//
mutation notation: G8R
label class: rule not met
//
mutation notation: R9L
label class: rule met
//
mutation notation: P7S
label class: rule not met
//
mutation notation: R9Y
label class: rule met
